Cited source: PubChem BioAssay AID1159580

# TEST_NAME: chemical genetic growth profiling, strain panel (AID 1159580);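 also: tested at 20 µM; growth read once vehicle control cultures reached saturation at 30 °C; 1 = growth at the plate median or of vehicle wells; lower values mean less growth of the strain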
# CONDITIONS: S. cerevisiae deletion strains, growth OD, locus YJR066W, strain TOR1, stronger effect = lower value
Out of some 5,500 compounds screened, about 2,000 (36%) were called active. Inconclusive results (about 18%) are left out. Some of the results follow.
Threshold check on normalized growth: strictly below 0.9 is MET; on or above 0.9 is NOT MET.

Completed entries (count: 10):
[[record]]
molecule = "CNC(C)[C@@H]1CC[C@@H](N)[C@@H](OC2[C@@H](N)C[C@@H](N)[C@H](OC3OC[C@](C)(O)[C@H](NC)[C@H]3O)[C@H]2O)O1 (stereo partly specified)"
qualitative_label = "NOT MET"

[[record]]
molecule = "O=C(Nc1ccccc1Sc1ccc(C(F)(F)F)cc1[N+](=O)[O-])C(Cl)Cl"
qualitative_label = "NOT MET"

[[record]]
molecule = "CC(C)N=C(N)N=C(N)Nc1ccc(Cl)cc1"
qualitative_label = "NOT MET"

[[record]]
molecule = "CC(=O)c1c(O)cc(O)cc1O"
qualitative_label = "NOT MET"

[[record]]
molecule = "COc1ccc(OC)c2nc3c(nc12)C(=O)c1ccccc1-3"
qualitative_label = "NOT MET"

[[record]]
molecule = "COC(=O)C[C@H]1C(C)(C)[C@@H](OC(C)=O)[C@@H]2CC3=C4CC(=O)O[C@@H](c5ccoc5)[C@]4(C)CCC3[C@@]1(C)C2=O (stereo partly specified)"
qualitative_label = "NOT MET"

[[record]]
molecule = "COc1cc(C2SCCS2)cc(Br)c1OC(=O)NC(=O)c1c(Cl)cccc1Cl"
qualitative_label = "NOT MET"

[[record]]
molecule = "C=C(C)C1Cc2c(ccc3c(=O)c4c(oc23)COc2cc(OC)c(OC)cc2-4)O1 (stereo unspecified)"
qualitative_label = "NOT MET"

[[record]]
molecule = "O=C(O)CCC(=O)OC[C@@H](NC(=O)C(Cl)Cl)[C@H](O)c1ccc([N+](=O)[O-])cc1"
qualitative_label = "NOT MET"

[[record]]
molecule = "N[C@@H](C(=O)N[C@@H]1C(=O)N2C(C(=O)O)=C(Cl)CS[C@H]12)c1ccccc1"
qualitative_label = "NOT MET"


Query block: For COC(=O)c1cc(I)c(OC(C)=O)c(I)c1 , is the recorded normalized growth below the cut-off of 0.9?
Result block: NOT MET

Query block: For FC(F)(F)c1ccncc1-c1nc(-c2ccc(Cl)cc2)cs1 , is the recorded normalized growth below the cut-off of 0.9?
Result block: NOT MET

* * *

# TEST_NAME: chemical genetic growth profiling, strain panel (AID 1159580)
# CONDITIONS: S. cerevisiae deletion strains, growth OD, locus YOR231W, strain MKK1, stronger effect = lower value
Out of some 5,500 compounds screened, about 2,000 (36%) were called active. Another 18% or so got no clear call; they are omitted. The list shows a part of the results.
# reported normalized growth; entries follow
Please state the value as a number alone, without comment.

[[record]]
compound = "O=C(OCCNc1ccc([N+](=O)[O-])cn1)c1ccc([N+](=O)[O-])o1"
test_readout = "normalized growth"
quantitative_readout = 0.572


Query block: Complete the entry with normalized growth for COc1ccc(-c2c(O)c3c(OC)c4c(cc3oc2=O)OC(C)(C)C=C4)cc1
Result block: 0.969

Query block: Complete the entry with normalized growth for O=c1c(O)c(-c2ccccc2)oc2ccccc12
Result block: 0.834

Query block: Complete the entry with normalized growth for CC(=O)Oc1c(C)c(C)c2c(c1C)CCC(C)(CCCC(C)CCCC(C)CCCC(C)C)O2 (stereo unspecified)
Result block: 0.978

Query block: Complete the entry with normalized growth for COc1cc(C2SCCS2)cc(Br)c1OC(=O)NC(=O)c1c(Cl)cccc1Cl
Result block: 0.993

Query block: Complete the entry with normalized growth for O=C(/C=C/c1ccc(O)cc1)c1ccc(O)cc1O
Result block: 0.874

Query block: Complete the entry with normalized growth for OC[C@H]1O[C@@H](Oc2ccc(O)cc2)[C@H](O)[C@@H](O)[C@@H]1O
Result block: 0.958

* * *

# TEST_NAME: chemical genetic growth profiling, strain panel (AID 1159580)
# CONDITIONS: S. cerevisiae deletion strains, growth OD, locus YKL085W, strain MDH1, stronger effect = lower value
Out of some 5,500 compounds screened, about 2,000 (36%) were called active. Not shown: some 18% with an inconclusive outcome. This is one part of the list.
TEST_READOUT: normalized growth
Please state the value as a number alone, without comment.

Some solved cases for reference:
[[record]]
sample_smiles = "N[C@@H](C(=O)N[C@@H]1C(=O)N2C(C(=O)O)=C(Cl)CS[C@H]12)c1ccccc1"
test_readout = "normalized growth"
quantitative_readout = 1.02

[[record]]
sample_smiles = "O[C@H]1[C@H](O)[C@@H](O)C2OC[C@H]1O2"
test_readout = "normalized growth"
quantitative_readout = 1.02

[[record]]
sample_smiles = "O=C(/C=C/c1ccccc1)c1ccc(O[C@@H]2O[C@H](CO)[C@@H](O)[C@H](O)[C@H]2O)cc1O"
test_readout = "normalized growth"
quantitative_readout = 0.902

[[record]]
sample_smiles = "O=c1c(O)c(-c2ccccc2)oc2cc(O)ccc12"
test_readout = "normalized growth"
quantitative_readout = 0.911


Query block: Complete the entry with normalized growth for O=C(/C=C/c1ccccc1)c1c(O)cc(O)cc1O
Result block: 1

* * *

# TEST_NAME: chemical genetic growth profiling, strain panel (AID 1159580);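 also: tested at 20 µM; growth read once vehicle control cultures reached saturation at 30 °C; 1 = growth at the plate median or of vehicle wells; lower values mean less growth of the strain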
# CONDITIONS: S. cerevisiae deletion strains, growth OD, locus YPL078C, strain atp4
Among all 5,500 compounds or so, about 2,000 (36%) were called active. Not shown: some 18% with an inconclusive outcome. Rule as the data show it: active = normalized growth mostly below about 0.91 (no sharp cut-off); inconclusive = no clear call, values can overlap the other calls; inactive = mostly above about 0.92. The list shows a part of the results.
Write down the outcome that applies. Available outcomes: yes (1) for active, no (0) for inactive

Query block: Hi, do you know how COCC1=C(C(=O)OC(C)OC(=O)OC(C)C)N2C(=O)[C@@H](NC(=O)/C(=N\OC)c3csc(N)n3)[C@H]2SC1 (stereo partly specified) came out in this test?
Result block: no (0)

Query block: Hi, do you know how COc1cc(OC)c2c(OC)c(-c3ccc4c(c3)OCO4)c(=O)oc2c1 came out in this test?
Result block: no (0)

Query block: Hi, do you know how COc1ccc(-c2c(O)c3c(OC)c4c(cc3oc2=O)OC(C)(C)C=C4)cc1 came out in this test?
Result block: no (0)

Query block: Hi, do you know how CC[C@H]1OC(=O)[C@H](C)[C@@H](O[C@H]2C[C@@](C)(OC)[C@@H](O)[C@H](C)O2)[C@H](C)[C@@H](O[C@@H]2O[C@H](C)C[C@H](N(C)C)[C@H]2O)[C@](C)(O)C[C@@H](C)/C(=N/OCOCCOC)[C@H](C)[C@@H](O)[C@]1(C)O came out in this test?
Result block: no (0)

Query block: Hi, do you know how O=C1NS(=O)(=O)c2ccccc21 came out in this test?
Result block: no (0)

Query block: Hi, do you know how O=C1C=CC(=O)c2ccccc21 came out in this test?
Result block: yes (1)

* * *

# reported normalized growth; entries follow
# TEST_NAME: chemical genetic growth profiling, strain panel (AID 1159580);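 also: tested at 20 µM; growth read once vehicle control cultures reached saturation at 30 °C; 1 = growth at the plate median or of vehicle wells; lower values mean less growth of the strain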
# CONDITIONS: S. cerevisiae deletion strains, growth OD, locus YNL067W, strain RPL9B, stronger effect = lower value
Among all 5,500 compounds or so, about 2,000 (36%) were called active. Another 18% or so got no clear call; they are omitted. The list shows a part of the results.
Please state the value as a number alone, without comment.

Some solved cases for reference:
[[record]]
compound = "COc1cc(O)c2c(c1)C(=O)c1cc(C)cc(O)c1C2=O"
quantitative_readout = 0.989

[[record]]
compound = "O[C@H]1[C@H](O)[C@@H](O)C2OC[C@H]1O2"
quantitative_readout = 0.951

[[record]]
compound = "C=C[C@H]1CN2CC[C@H]1C[C@H]2[C@H](O)c1ccnc2ccccc12"
quantitative_readout = 1.01

[[record]]
compound = "C[N+]12CCC(CC1)C(OC(=O)C(O)(c1ccccc1)c1ccccc1)C2 (configuration not stated)"
quantitative_readout = 0.978

[[record]]
compound = "CNC(=O)Oc1cccc2c1OC(C)(C)C2"
quantitative_readout = 1.02

[[record]]
compound = "O=c1c(O)c(-c2ccccc2)oc2cc(O)ccc12"
quantitative_readout = 0.496


Turning to the following compound.
Query block: Complete the entry with normalized growth for C[C@]12CC[C@@H](O)C[C@H]1CCc1ccccc12
Result block: 1

* * *

# TEST_NAME: chemical genetic growth profiling, strain panel (AID 1159580);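 also: tested at 20 µM; growth read once vehicle control cultures reached saturation at 30 °C; 1 = growth at the plate median or of vehicle wells; lower values mean less growth of the strain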
# CONDITIONS: S. cerevisiae deletion strains, growth OD, locus YOR290C, strain snf2
About 2,000 (36%) of roughly 5,500 compounds were called active. Not shown: some 18% with an inconclusive outcome. Cut-off read from the data, not from the text of the source: active = normalized growth mostly below about 0.91 (no sharp cut-off); inconclusive = no clear call, values can overlap the other calls; inactive = mostly above about 0.92. This is one part of the list.
Write down the outcome that applies. Available outcomes: active, inactive

Completed entries (count: 6):
[[record]]
compound = "CC(=O)NS(=O)(=O)c1ccc(N)cc1"
qualitative_label = "inactive"

[[record]]
compound = "CC(=O)OC[C@@]1(O)C[C@@]23CCC4c5ccoc5CC[C@]4(C)C2CC[C@@H]1C3 (stereo partly specified)"
qualitative_label = "inactive"

[[record]]
compound = "C[C@H]1C(=O)CCC2[C@]3(C)CC[C@@]4(C)C5CC(C)(C)CC[C@]5(C)CC[C@]4(C)C3CC[C@@]21C (stereo partly specified)"
qualitative_label = "inactive"

[[record]]
compound = "COc1ccc(-c2c(O)c3c(OC)c4c(cc3oc2=O)OC(C)(C)C=C4)cc1"
qualitative_label = "inactive"

[[record]]
compound = "COc1cc(O)c2c(c1)C(=O)c1cc(C)cc(O)c1C2=O"
qualitative_label = "inactive"

[[record]]
compound = "NC(Cc1ccc(Cl)cc1)C(=O)O (stereo unspecified)"
qualitative_label = "inactive"


Query block: Hi, do you know how COC(=O)C[C@H]1C(C)(C)[C@@H](OC(C)=O)[C@@H]2CC3=C4CC(=O)O[C@@H](c5ccoc5)[C@]4(C)CCC3[C@@]1(C)C2=O (stereo partly specified) came out in this test?
Result block: inactive

Query block: Hi, do you know how CC(NC(C)(C)C)C(=O)c1cccc(Cl)c1 (stereo unspecified) came out in this test?
Result block: inactive

Query block: Hi, do you know how CC(C)[C@@H]1CC[C@@H](C)CC1=O came out in this test?
Result block: inactive
